target: rat isoform of TRPM8 channels (Rattus norvegicus); construct: expressed in transfected cells; test: Ca2+ fluorimetric assay, menthol-activated channel; format: cell-based; conditions: HEK-293 cells stably expressing rat TRPM8, menthol as agonist; mean ± SD of at least three measurements; read-out: IC50
PROPERTY_MEASURED: IC50 (µM)

A: O=C(O)CC[C@@H]1N[C@H](C(=O)NCc2ccc(F)cc2)Cc2c1[nH]c1ccccc21 [12b]
B: O=C1[C@H]2Cc3c([nH]c4ccccc34)[C@H](c3ccc(F)cc3)N2C(=O)N1c1cccc(C(F)(F)F)c1 [36a′]
query: Which entry shows the lesser value of IC50 here, A or B ? When you have decided, please share the label of that item.
result: B

* * *

target: rat isoform of TRPM8 channels (Rattus norvegicus); construct: expressed in transfected cells; experiment: Ca2+ fluorimetric assay, menthol-activated channel; format: cell-based; conditions: HEK-293 cells stably expressing rat TRPM8, menthol as agonist; mean ± SD of at least three measurements; read-out: IC50
PROPERTY_MEASURED: IC50 (nM)

Noted for CC(C)C[C@@H]1c2[nH]c3ccccc3c2C[C@H]2C(=O)N[C@@H](Cc3ccccc3)C(=O)N12 [25a] : its IC50 reads 4100

A: Cc1ccc(CN2C(=O)[C@@H]3Cc4c([nH]c5ccccc45)[C@@H](c4ccc(Cl)cc4)N3C2=O)cc1 [30a]
B: NCCCN1C(=O)[C@@H]2Cc3c([nH]c4ccccc34)[C@@H](c3ccc(F)cc3)N2C1=O [35a]
C: O=C1N[C@@H](Cc2ccccc2)C(=O)N2Cc3[nH]c4ccccc4c3C[C@@H]12 [compound 22]
query: Provide the items ranked by increasing IC50. To answer, arrange all of the labels according to the requested order.
result: A, C, B

* * *

biological target: rat isoform of TRPM8 channels (Rattus norvegicus, UniProt Q8R455); construct: expressed in transfected cells; assay: Ca2+ fluorimetric assay, menthol-activated channel; format: cell-based; conditions: HEK-293 cells stably expressing rat TRPM8, menthol as agonist; mean ± SD of at least three measurements; read-out: IC50
Sequence (Q8R455 whole entry, canonical isoform): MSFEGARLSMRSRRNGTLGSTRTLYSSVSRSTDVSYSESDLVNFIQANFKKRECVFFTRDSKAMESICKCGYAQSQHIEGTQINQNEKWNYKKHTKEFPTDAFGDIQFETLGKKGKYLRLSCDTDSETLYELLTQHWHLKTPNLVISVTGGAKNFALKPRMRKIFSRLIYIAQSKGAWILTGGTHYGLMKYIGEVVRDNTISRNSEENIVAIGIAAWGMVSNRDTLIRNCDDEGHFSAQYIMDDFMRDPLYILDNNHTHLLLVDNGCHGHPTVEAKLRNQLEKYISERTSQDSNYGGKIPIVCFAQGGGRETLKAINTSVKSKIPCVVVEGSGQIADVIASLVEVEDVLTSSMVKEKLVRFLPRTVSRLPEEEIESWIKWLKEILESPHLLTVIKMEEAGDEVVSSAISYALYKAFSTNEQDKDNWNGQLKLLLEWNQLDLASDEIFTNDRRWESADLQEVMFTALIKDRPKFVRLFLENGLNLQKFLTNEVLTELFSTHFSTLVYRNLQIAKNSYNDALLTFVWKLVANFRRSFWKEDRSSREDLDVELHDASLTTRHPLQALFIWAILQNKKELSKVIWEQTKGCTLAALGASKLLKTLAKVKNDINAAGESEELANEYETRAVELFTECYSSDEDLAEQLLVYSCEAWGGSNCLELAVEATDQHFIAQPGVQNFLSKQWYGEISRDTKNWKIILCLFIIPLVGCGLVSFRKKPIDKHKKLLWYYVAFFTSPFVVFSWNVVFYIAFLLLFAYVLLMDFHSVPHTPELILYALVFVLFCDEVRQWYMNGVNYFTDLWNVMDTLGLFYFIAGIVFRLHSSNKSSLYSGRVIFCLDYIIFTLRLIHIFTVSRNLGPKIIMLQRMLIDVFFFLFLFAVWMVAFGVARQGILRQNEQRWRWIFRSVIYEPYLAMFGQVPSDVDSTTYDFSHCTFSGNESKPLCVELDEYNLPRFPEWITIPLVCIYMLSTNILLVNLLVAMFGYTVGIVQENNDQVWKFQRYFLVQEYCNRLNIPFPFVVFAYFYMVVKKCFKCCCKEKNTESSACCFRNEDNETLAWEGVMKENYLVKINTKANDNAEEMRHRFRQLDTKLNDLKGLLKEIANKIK
PROPERTY_MEASURED: IC50 (µM)

Below: 3 compounds and their reported IC50.
Noted for O=C1[C@@H]2Cc3c([nH]c4ccccc34)[C@H](c3ccc(F)cc3)N2C(=O)N1c1cccc(C(F)(F)F)c1 [36b] : its IC50 reads 0.2

Noted for O=C1[C@@H]2Cc3c([nH]c4ccccc34)[C@@H](c3ccc(F)cc3)N2C(=O)N1c1ccccc1F [37a] : its IC50 reads 4.4

Noted for COc1ccc(CN2C(=O)[C@@H]3Cc4c([nH]c5ccccc45)[C@@H](CC(C)C)N3C2=O)cc1 [29a] : its IC50 reads 2.8

P: O=C1NCC(=O)N2[C@@H](c3ccc(Cl)cc3)c3[nH]c4ccccc4c3C[C@@H]12 [27b]
Q: O=C1[C@@H]2Cc3c([nH]c4ccccc34)[C@@H](c3ccc(F)cc3)N2C(=O)N1c1cccc(C(F)(F)F)c1 [36a]
query: Which entry shows the lesser value of IC50 here, P or Q ? When you have decided, please share the label of that item.
result: P

* * *

target: rat isoform of TRPM8 channels (Rattus norvegicus, UniProt Q8R455); construct: expressed in transfected cells; assay: Ca2+ fluorimetric assay, menthol-activated channel; type: cell-based; details: supplementary xlsx
PROPERTY_MEASURED: rTRPM8 IC50 (calcium microfluorimetric assays) (µM)

Below: 2 molecules and their reported rTRPM8 IC50 (calcium microfluorimetric assays).
Noted for O=C1[C@@H]2Cc3c([nH]c4ccccc34)[C@@H](c3ccc(F)cc3)N2C(=O)N1c1ccc(F)cc1 [38a] : its rTRPM8 IC50 (calcium microfluorimetric assays) reads 7.2

Noted for COc1ccc(CN2C(=O)[C@@H]3Cc4c([nH]c5ccccc45)[C@@H](CC(C)C)N3C2=O)cc1 [29a] : its rTRPM8 IC50 (calcium microfluorimetric assays) reads 22.9

A: O=C1[C@@H]2Cc3c([nH]c4ccccc34)[C@@H](c3ccc(F)cc3)N2C(=O)N1Cc1ccccc1 [33a]
B: O=C1[C@@H]2Cc3c([nH]c4ccccc34)[C@@H](c3ccc(F)cc3)N2C(=O)N1c1cccc(C(F)(F)F)c1 [36a]
C: Cc1ccc(CN2C(=O)[C@@H]3Cc4c([nH]c5ccccc45)[C@@H](c4ccc(Cl)cc4)N3C2=O)cc1 [30a]
D: O=C1[C@@H]2Cc3c([nH]c4ccccc34)[C@@H](c3ccc(F)cc3)N2C(=O)N1c1ccccc1F [37a]
E: NCCCN1C(=O)[C@@H]2Cc3c([nH]c4ccccc34)[C@@H](c3ccc(F)cc3)N2C1=O [35a]
query: Provide the items ranked by increasing rTRPM8 IC50 (calcium microfluorimetric assays). To answer, arrange all of the labels according to the requested order.
result: C, D, B, A, E
(C: 2.3 µM, D: 5.1 µM, B: 7.8 µM, A: 17.5 µM, E: 27.2 µM)
